assay: chemical genetic growth profiling, strain panel (AID 1159580);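 further: tested at 20 µM; growth read once vehicle control cultures reached saturation at 30 °C; 1 = growth at the plate median or of vehicle wells; lower values mean less growth of the strain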; conditions: S. cerevisiae deletion strains, growth OD, locus YBR009C, strain hhf1, stronger effect = lower value
Screen size: about 5,500 compounds; about 2,000 (36%) were called active. About 18% were inconclusive and are not listed. The list shows a part of the results.
Please respond with reported normalized growth for every item in the list.
Respond numerically, and do not add a unit to the figure.

Req: Return reported normalized growth; argument: CC12CC3CC(C)(C1)CC(N)(C3)C2
Resp: 0.993

Req: Please give the result for c1ccc2c(c1)CN1CCCC1=N2 too.
Resp: 0.987

Req: Input C=Cc1c(C)c2[n-]c1=Cc1[n-]c(c(CC)c1C)C=c1[n-]c3c(c1C)C(=O)C(C(=O)[O-])C=3c1[n-]c(c(C)c1CCC(=O)[O-])C=2.[Cu] (stereo unspecified)
Resp: 1.02

Req: Param item: COc1cc([C@H]2Oc3cc([C@H]4Oc5cc(O)cc(O)c5C(=O)[C@@H]4O)ccc3O[C@@H]2CO)ccc1O
Resp: 1

Req: Continue with C=C1C(C2(C)C=CC(=O)C(C)(C)C2CC(=O)OC)CC[C@@]2(C)[C@H](c3ccoc3)OC(=O)C3OC132 (stereo partly specified)
Resp: 1

Req: Same read-out for C=C1C2CC[C@@]3(C)[C@H](c4ccoc4)OC(=O)C[C@]13O[C@H]1CC(O)C(C)(C)C(CC(=O)OC)[C@@]21C (stereo partly specified) ?
Resp: 0.972

Req: Also, Cc1ncc([N+](=O)[O-])n1CC(C)O (stereo unspecified) please.
Resp: 0.982

Req: Would you mind doing CCCC(C(=O)OCCN(CC)CC)(c1ccccc1)c1ccccc1 as well?
Resp: 1

Req: Now try C[C@H](N)[C@H](O)c1cccc(O)c1 .
Resp: 1.02

Req: What do you get for Cc1cc(C)cc(OCC2CNC(=O)O2)c1 (stereo unspecified) ?
Resp: 0.985

Req: Could you do the same for C[C@@H](N)[C@@H](O)c1ccccc1 , please?
Resp: 1

====

test: chemical genetic growth profiling, strain panel (AID 1159580);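 further: tested at 20 µM; growth read once vehicle control cultures reached saturation at 30 °C; 1 = growth at the plate median or of vehicle wells; lower values mean less growth of the strain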; details: S. cerevisiae deletion strains, growth OD, locus YNR052C, strain pop2, stronger effect = lower value
Out of some 5,500 compounds screened, about 2,000 (36%) were called active. Inconclusive results (about 18%) are left out. Some of the results follow. Where a SMILES comes first, the peptide text is derived from it.
readoutKind: normalized growth
Lab note: record the figure alone, no unit after it.

Req: Name the recorded normalized growth for CC1=C2[C@H]3OC(=O)[C@@H](C)[C@@H]3CC[C@@]2(C)C=CC1=O .
Resp: 1.01

Req: Same read-out for Cc1cc(C)cc(OCC2CNC(=O)O2)c1 (centres undefined) ?
Resp: 1.02

Req: Entry to check: C[C@H](CCC(=O)O)[C@H]1CCC2C3C(CC[C@@]21C)[C@@]1(C)CC[C@@H](O)C[C@H]1C[C@@H]3O (some centres undefined)
Resp: 0.971

Req: Field entry: COc1ccc(C(=O)N2CCCC2=O)cc1
Resp: 0.974

Req: Same question for C[C@@H](N)[C@@H](O)c1ccccc1 please.
Resp: 0.973

Req: Field entry: C[C@H](N)[C@H](O)c1ccccc1
Resp: 1

Req: What would you report for NCCCCC(N)C(=O)NC(Cc1ccc(O)cc1)C(=O)NC(CCCCN)C(=O)O (stereo not drawn) (H-Lys-Tyr-Lys-OH; configuration not given here) ?
Resp: 0.99

Req: Item: Nc1cc(-c2ccncc2)c[nH]c1=O
Resp: 0.994

Req: Entry CN(C)C(=O)Nc1ccc(Cl)c(Cl)c1 please
Resp: 1.03
